Listed next: entries and their corresponding IC50.
# System: SARS-CoV-2
# assay_comment: microbe, parasite or virus in culture
# conditions_used: Severe acute respiratory syndrome coronavirus 2, Vero C1008, 48 h

molecule	reading
O=C(O)c1ccc2c(c1)OCO2 [PIPERONYLIC ACID]	> 20 µM
N=C(N)NCCCCNC(=N)N [ARCAINE]	> 20 µM
CNCc1ccc(-c2[nH]c3cc(F)cc4c3c2CCNC4=O)cc1 [RUCAPARIB]	> 20 µM
CC1(C)CN2C(=O)c3[nH]cnc3N(Cc3ccc(Cl)cc3)C2=N1	> 20 µM
O=C(O)CCCC[C@H]1SC[C@H]2NC(=O)N[C@H]21	> 20 µM

Q: Indicate the recorded IC50 value for this molecule: Clc1ccc(C2(Cn3cncn3)OCCO2)c(Cl)c1 [AZACONAZOLE]
Result: > 20 µM

Q: Indicate the recorded IC50 value for this molecule: CN(C)CCCN1c2ccccc2CCc2ccc(C#N)cc21 [CIANOPRAMINE]
Result: > 20 µM

Q: Indicate the recorded IC50 value for this molecule: CC(C)(C)C(=O)Oc1ccc2c(c1)O[C@@H](c1ccc(OCCN3CCCCC3)cc1)C1=C2COc2cc(OC(=O)C(C)(C)C)ccc21
Result: > 20 µM

Q: Indicate the recorded IC50 value for this molecule: c1coc(CNc2ncnc3[nH]cnc23)c1 [KINETIN]
Result: > 20 µM

Q: Indicate the recorded IC50 value for this molecule: CC(C)c1c(CN(C)C(C)Cc2ccccc2)n(C)n(-c2ccccc2)c1=O (stereo unspecified) [FAMPROFAZONE]
Result: > 20 µM

Q: Indicate the recorded IC50 value for this molecule: Cc1cccc(N(C)C(=S)Oc2ccc3ccccc3c2)c1 [TOLNAFTATE]
Result: > 20 µM

Q: Indicate the recorded IC50 value for this molecule: Cc1ccc(O)cc1 [p-CRESOL]
Result: > 20 µM

Q: Indicate the recorded IC50 value for this molecule: N#CCNC(=O)c1ccc(-c2ccnc(Nc3ccc(N4CCOCC4)cc3)n2)cc1 [MOMELOTINIB]
Result: > 20 µM

Q: Indicate the recorded IC50 value for this molecule: O=C(O)Cc1c[nH]cn1 [IMIDAZOLE ACETIC ACID]
Result: > 20 µM

Q: Indicate the recorded IC50 value for this molecule: C[C@]12CCC(=O)C[C@@H]1CC[C@@H]1[C@@H]2CC[C@]2(C)[C@@H](O)CC[C@@H]12 [STANOLONE]
Result: > 20 µM
